Below, each entry is listed with its recorded melting point.

See these solved cases before continuing.
molecule | melting point
CCC(NS(=O)(=O)c1ccc(Cl)cc1)c1ccccc1 (stereo unspecified) | 140 to 142 °C
O=[N+]([O-])c1ccc(-c2nc(-c3ccccn3)no2)cc1 | 211 to 213 °C
COC(=O)[C@@H]1CCCN1S(=O)(=O)c1ccc(Cl)c(COc2cccc3c(C)cc(C)nc23)c1Cl | 138 °C
CC(C)NC(=S)N1CCc2c(ncn2C)C1 | 200 °C
CS(=O)(=O)c1ccc(-c2oc(CCC(=O)O)nc2-c2ccc(F)cc2)cc1 | 197 to 198 °C
CN(C)c1cccc2c(S(=O)(=O)Nc3ccc(Cl)cn3)cccc12 | 160 to 162 °C
Cc1nc(N)nc(N)c1-c1cccc(Cl)c1Cl | 245 to 247 °C
OCc1ccnc2cc(Cl)ccc12 | 160 °C

Sample O=C(c1ccccc1)c1cc2ccncc2[nH]1 — what was its melting point?
245 to 247 °C

// melting point lookup, key: CC(=O)Nc1ccc2c(c1)CCN2NC(C)=O
217 to 218 °C

Any idea what its melting point is? The molecule is N#CN1CCC2(CC1)CN(c1ccc(Cl)cc1)c1ccccc12
178 to 180 °C

Quick one: melting point of O=C(O)C(Cl)C1c2c(Cl)c(Cl)c(Cl)c(Cl)c2C(Cl)(Cl)C1(Cl)Cl (stereo unspecified) ?
214 to 216 °C

Would you mind telling me what melting point value was observed for Cc1c(C(=O)C23CC4CC(CC(C4)C2)C3)oc2cc(F)ccc12 ?
107 to 109 °C

Any idea what its melting point is? The molecule is CN(C)S(=O)(=O)c1ccc(Br)cc1
90 to 92 °C

What melting point value was documented for this molecule, CN1c2cc(Cl)ccc2-c2nc3ccccc3c3cc(OS(=O)(=O)C(F)(F)F)cc1c23 ?
239 to 241 °C

Which melting point is listed for COc1cc(F)ccc1-c1c(/C=C/C(=O)O)c2ccccc2c(=O)n1C(C)C ?
265 to 267 °C
